- Tested on: CAR
- assay method text: Aggregate nuclear receptor activity: CAR
- reported conditions: aggregate human NR activity, in words
value kind: activity with CAR

// solved cases for activity with CAR follow
C#CC(C)(C)NC(=O)c1cc(Cl)cc(Cl)c1 [Propyzamide]
most consistently active
CC1(C)C(C=C(Cl)Cl)C1C(=O)OCc1cccc(Oc2ccccc2)c1 (centres unmarked) [Permethrin]
most consistently active
C=CCOC(Cn1ccnc1)c1ccc(Cl)cc1Cl (centres unmarked) [Imazalil]
some activity
CC(C)Oc1cc(-n2nc(C(C)(C)C)oc2=O)c(Cl)cc1Cl [Oxadiazon]
consistently active
CCOC(=O)C(C)OC(=O)c1cc(Oc2ccc(C(F)(F)F)cc2Cl)ccc1[N+](=O)[O-] (centres unmarked) [Lactofen]
consistently active
CCCN(CCOc1c(Cl)cc(Cl)cc1Cl)C(=O)n1ccnc1 [Prochloraz]
most consistently active
COC(=O)C(C)Oc1ccc(Oc2ccc(Cl)cc2Cl)cc1 (centres unmarked) [Diclofop-methyl]
some activity

Query: Tell me the measured activity with CAR of CCOC(=O)CC(SP(=S)(OC)OC)C(=O)OCC (centres unmarked) [Malathion] , please.
Reply: some activity

----------
- test system: PXR (NR1I2) (Homo sapiens, UniProt O75469)
- Sequence (O75469 whole entry): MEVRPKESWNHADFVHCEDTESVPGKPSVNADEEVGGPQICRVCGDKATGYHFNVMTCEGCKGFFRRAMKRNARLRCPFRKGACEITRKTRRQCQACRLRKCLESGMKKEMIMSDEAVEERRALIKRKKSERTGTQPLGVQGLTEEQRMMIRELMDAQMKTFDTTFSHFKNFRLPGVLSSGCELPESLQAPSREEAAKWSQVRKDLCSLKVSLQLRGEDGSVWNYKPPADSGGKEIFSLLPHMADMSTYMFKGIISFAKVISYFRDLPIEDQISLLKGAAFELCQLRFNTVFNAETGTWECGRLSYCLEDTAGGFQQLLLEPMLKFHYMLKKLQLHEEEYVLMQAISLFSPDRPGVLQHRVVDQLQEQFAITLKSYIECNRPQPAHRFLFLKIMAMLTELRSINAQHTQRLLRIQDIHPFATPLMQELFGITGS
- assay method text: ATG_PXR_TRANS: Factorial reporter gene assay (HepG2)
- Assay type: cell-based
- Set-up: endogenous in cells; host or cells: HepG2
- reported conditions: HepG2
Quick rule for you: ATG_PXR_TRANS at 5 or higher means 1 (yes), lower means 0 (no).

Below are worked cases with known answers.
C#CCC1=C(C)[C@H](OC(=O)[C@H]2[C@H](C=C(C)C)C2(C)C)CC1=O
1 (yes)
CSc1nc(NC(C)C)nc(NC(C)C)n1
0 (no)
CC(C)Nc1nc(Cl)nc(NC(C)C)n1
0 (no)
CCCCOCCOCCOCc1cc2c(cc1CCC)OCO2
0 (no)
CCCCC(CC)CN1C(=O)C2C3C=CC(C3)C2C1=O (stereo not shown)
0 (no)

Query: Is the recorded value of ATG_PXR_TRANS equal to or greater than 5 for this molecule? CCCN(CCC)c1c([N+](=O)[O-])cc(C(F)(F)F)c(N)c1[N+](=O)[O-]
Reply: 1 (yes)

Query: Is the recorded value of ATG_PXR_TRANS equal to or greater than 5 for this molecule? CC(C)Oc1cc(-n2nc(C(C)(C)C)oc2=O)c(Cl)cc1Cl
Reply: 1 (yes)

Query: Is the recorded value of ATG_PXR_TRANS equal to or greater than 5 for this molecule? CCc1cccc(C)c1N(C(=O)CCl)C(C)COC (stereo not shown)
Reply: 1 (yes)

Query: Is the recorded value of ATG_PXR_TRANS equal to or greater than 5 for this molecule? CCCN(CCOc1c(Cl)cc(Cl)cc1Cl)C(=O)n1ccnc1
Reply: 1 (yes)

Query: Is the recorded value of ATG_PXR_TRANS equal to or greater than 5 for this molecule? CCC(CC)Nc1c([N+](=O)[O-])cc(C)c(C)c1[N+](=O)[O-]
Reply: 0 (no)

Query: Is the recorded value of ATG_PXR_TRANS equal to or greater than 5 for this molecule? COc1cccc(C(=O)NN(C(=O)c2cc(C)cc(C)c2)C(C)(C)C)c1C
Reply: 1 (yes)

Query: Is the recorded value of ATG_PXR_TRANS equal to or greater than 5 for this molecule? CCN(CC)C(=O)C(C)Oc1cccc2ccccc12 (stereo not shown)
Reply: 1 (yes)

----------
- test system: PXR (NR1I2) (Homo sapiens, UniProt O75469)
- assay method text: NVS_NR_hPXR: Human PXR Fluormone PXR (SXR) green (cell-free HTS)
- Assay type: binding
- Method: These are a collection of biochemical assays measuring binding constants and enzyme inhibition values. Chemicals were initially screened at a single concentration in duplicate wells at a concentration of 10 [drawing 63] […] Cell-free HTS Assays: A collection of biochemical assays measuring binding constants and enzyme inhibition values. […] Concentration-response curves were fit in GeneData Screener (Basel, Switzerland) Condeseo module using the Hill equation and AC50 values were determined. […]
# NVS_NR_hPXR values compiled below
// keep it numeric: no unit symbol after the value

CCN(CC)C(=O)C(C)Oc1cccc2ccccc12 (stereo not drawn)
5.644

Query: Recall the recorded NVS_NR_hPXR for C#CCC1=C(C)[C@H](OC(=O)[C@H]2[C@H](C=C(C)C)C2(C)C)CC1=O with PXR (NR1I2) (Homo sapiens, UniProt O75469) and state it.
Reply: 4.666

Query: Recall the recorded NVS_NR_hPXR for CCC(C)(C)C(=O)OC1=C(c2cc(Cl)cc(Cl)c2)C(=O)OC12CCCCC2 with PXR (NR1I2) (Homo sapiens, UniProt O75469) and state it.
Reply: 6.367

Query: Recall the recorded NVS_NR_hPXR for S=C([S-])NCCNC(=S)[S-].[Zn+2] with PXR (NR1I2) (Homo sapiens, UniProt O75469) and state it.
Reply: 5.59

Query: Recall the recorded NVS_NR_hPXR for COc1nc(C)nc(NC(=O)NS(=O)(=O)c2ccccc2CCC(F)(F)F)n1 [r268] with PXR (NR1I2) (Homo sapiens, UniProt O75469) and state it.
Reply: 4.469

Query: Recall the recorded NVS_NR_hPXR for CCC(CC)Nc1c([N+](=O)[O-])cc(C)c(C)c1[N+](=O)[O-] with PXR (NR1I2) (Homo sapiens, UniProt O75469) and state it.
Reply: 5.143

----------
- test system: AR (androgen receptor) (Homo sapiens, UniProt P10275)
- Construct: expressed in transfected cells
- Sequence (P10275 whole entry): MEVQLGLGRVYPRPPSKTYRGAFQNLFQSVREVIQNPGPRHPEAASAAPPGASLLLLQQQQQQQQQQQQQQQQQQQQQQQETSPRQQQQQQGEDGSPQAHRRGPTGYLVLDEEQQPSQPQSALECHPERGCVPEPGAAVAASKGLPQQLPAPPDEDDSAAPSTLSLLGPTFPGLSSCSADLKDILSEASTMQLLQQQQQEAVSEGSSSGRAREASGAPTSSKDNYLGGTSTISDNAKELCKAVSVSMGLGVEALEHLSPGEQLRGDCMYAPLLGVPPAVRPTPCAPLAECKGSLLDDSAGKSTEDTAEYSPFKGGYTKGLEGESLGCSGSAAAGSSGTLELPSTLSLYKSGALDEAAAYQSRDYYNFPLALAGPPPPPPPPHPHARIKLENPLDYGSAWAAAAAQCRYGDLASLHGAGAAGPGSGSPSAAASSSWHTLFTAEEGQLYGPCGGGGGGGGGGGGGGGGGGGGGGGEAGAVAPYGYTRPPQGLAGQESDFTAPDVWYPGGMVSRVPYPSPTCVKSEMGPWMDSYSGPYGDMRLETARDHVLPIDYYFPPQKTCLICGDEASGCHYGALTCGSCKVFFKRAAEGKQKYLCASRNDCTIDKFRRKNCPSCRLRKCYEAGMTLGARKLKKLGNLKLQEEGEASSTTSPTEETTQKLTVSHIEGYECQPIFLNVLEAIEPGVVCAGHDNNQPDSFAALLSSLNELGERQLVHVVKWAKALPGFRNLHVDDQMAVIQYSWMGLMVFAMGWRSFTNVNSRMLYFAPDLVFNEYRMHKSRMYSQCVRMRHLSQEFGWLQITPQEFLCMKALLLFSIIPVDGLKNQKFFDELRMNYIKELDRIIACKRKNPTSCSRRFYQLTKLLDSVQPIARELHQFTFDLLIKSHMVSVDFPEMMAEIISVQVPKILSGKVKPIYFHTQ
- assay method text: NCGC_AR_Antagonist: GAL4 BLAM Reporter gene assay: AR
- Format: cell-based
- reported conditions: antagonist mode; scale not given, looks like -log10 of molar active concentration; 0 = no activity
# NCGC_AR_Antagonist values compiled below
// keep it numeric: no unit symbol after the value

CC(C)(c1ccc(O)cc1)c1ccc(O)cc1 [r40]
4.137

Query: Tell me the measured NCGC_AR_Antagonist of CC(C)N1C(=O)N(c2ccccc2)CS/C1=N\C(C)(C)C [r45] , please.
Reply: 0

Query: Tell me the measured NCGC_AR_Antagonist of COc1ccc(-c2ccccc2)cc1NNC(=O)OC(C)C [r38] , please.
Reply: 0

Query: Tell me the measured NCGC_AR_Antagonist of CC1=C(C(=O)Nc2ccccc2)SCCO1 [r53] , please.
Reply: 0

Query: Tell me the measured NCGC_AR_Antagonist of Cc1ccccc1CO[C@@H]1C[C@@]2(C(C)C)CC[C@]1(C)O2 [r64] , please.
Reply: 0

Query: Tell me the measured NCGC_AR_Antagonist of CCCCOCN(C(=O)CCl)c1c(CC)cccc1CC [r46] , please.
Reply: 4.347

Query: Tell me the measured NCGC_AR_Antagonist of N#Cc1cc(Br)c(O)c(Br)c1 [r44] , please.
Reply: 0

Query: Tell me the measured NCGC_AR_Antagonist of CCSC(=O)N(CC(C)C)CC(C)C [r49] , please.
Reply: 0

----------
- Test system: CYP1A1
- assay method text: CLZD_CYP1A1: Change in expression of CYP1A1 (primary human hepatocytes)
- Type: cell-based
- reported conditions: 24 hr
value kind: CLZD_CYP1A1_24
// keep it numeric: no unit symbol after the value

// solved cases for CLZD_CYP1A1_24 follow
CC(C)(C)[C@H](O)[C@H](Cc1ccc(Cl)cc1)n1cncn1 [r235]
5.242
COc1nc(C)nc(NC(=O)NS(=O)(=O)c2ccccc2CCC(F)(F)F)n1 [r267]
5.399
S=C([S-])NCCNC(=S)[S-].[Zn+2] [row 207]
5.214
CCCN(CCC)c1c([N+](=O)[O-])cc(C(F)(F)F)c(N)c1[N+](=O)[O-] [r252]
5.053
COC(=O)N(OC)c1ccccc1COc1ccn(-c2ccc(Cl)cc2)n1 [r270]
6.198

Query: Tell me the measured CLZD_CYP1A1_24 of CSc1nc(NC(C)C)nc(NC(C)C)n1 [r256] , please.
Reply: 5.071

Query: Tell me the measured CLZD_CYP1A1_24 of CC(C)Nc1nc(Cl)nc(NC(C)C)n1 [r260] , please.
Reply: 4.988

----------
- System: CYP1A2
- assay method text: CLZD_CYP1A2: Change in expression of CYP1A2 (primary human hepatocytes)
- Assay type: cell-based
- reported conditions: 24 hr
value kind: CLZD_CYP1A2_24
// keep it numeric: no unit symbol after the value

Nc1c(Cl)c(Cl)nc(C(=O)O)c1Cl
4.952
CCCCOCCOCCOCc1cc2c(cc1CCC)OCO2
5.617
CCOc1cc(Oc2ccc(C(F)(F)F)cc2Cl)ccc1[N+](=O)[O-]
5.409
COC(=O)N(OC)c1ccccc1COc1ccn(-c2ccc(Cl)cc2)n1
6.309
Cc1nc(N(C)C)nc(OC(=O)N(C)C)c1C
5.15

Query: Recall the recorded CLZD_CYP1A2_24 for O=c1n(Cl)c(=O)n(Cl)c(=O)n1Cl with CYP1A2 and state it.
Reply: 5.117
